Value source: paper PMC8523698

# Assay: Dog pharmacokinetic study
# Assay conditions: male, Beagle, dog, plasma, iv, Terminal T1/2, dog IV (n=2, range); PF-07304814 […], PF-00835231 1.0mg/kg
Measurement label: half-life (min)
Report the figure in min without appending any unit label.

Tell me the measured half-life of `COc1cccc2[nH]c(C(=O)N[C@@H](CC(C)C)C(=O)N[C@@H](C[C@@H]3CCNC3=O)C(=O)COP(=O)(O)O)cc12` , please.
30

###

# Test system: CYP3A4/5
# Assay: in vitro
# Assay conditions: human, microsomes, pH 7.4, Percent of Control Activity, CYP 3A4/5 (mdz), 0.01 µM, 30-Minute Preincubation
Measurement label: activity at 0.01 µM (%)
Report the figure in % without appending any unit label.

Query the reported activity at 0.01 µM for CYP3A4/5; item: `COc1cccc2[nH]c(C(=O)N[C@@H](CC(C)C)C(=O)N[C@@H](C[C@@H]3CCNC3=O)C(=O)COP(=O)(O)O)cc12`
99.4
